Parameter binning response: see the listing below.
# tested-system: Biotinylated CoV2 Spike ECD PreS-AVI protein (SARS-CoV-2, UniProt P0DTC2 14-1208)
# experiment-description: Octet binning; competitor 15H7

9B2 VHH-Fc (Fc fusion) QVQLVESGGGLVQPGGSLRLSCAASGFTLDNYAIGWFRQAPGKEREGVSCISSSDGDTQYADSVKGRFTISRDNAKNTVYLQMNSLKPEDTAVYYCAVEKVYARSWFFHLCSELDFGSWGQGTQVTVSS	0.11
1E4 VHH-Fc (Fc fusion) QVLLVESGGGLVQAGGLLRLACSASGRTFTENVMGWFRQAPGKEREFVAAINWNTGSTYYSDSRKGRFTISKDNAKNTMFLQINNLKPEDTAVYYCGGTSSSYYYIGEFIPDYWGQGTQVTVSS	0.11
1A11 VHH-Fc (Fc fusion) QVQLVESGGGLVQAGGSLRLSCEVSGSIYSINSMGWYRQAPGKQRELVAGIVSDGRINYADSVKGRFTISRAKNTVYLQMNSLKPEDTAVYYCAADRAFVYAGDYDYLGQGTQVTVSS	0.14
10B8 VHH-Fc (Fc fusion) QVQLVESGGGLVQPGGSLRLSCAASGITLDYYAIAWFRQAPGKEREGVSCFCSSDGDIRYADSVKGRFTISRDNAKNTVYLQMNSLKPEDTAVYYCATERVYSSTWFFHRYSELDFGSWGRGTQVTVSS	0.12
7A9 VHH-Fc (Fc fusion) QVQLVESGGGLVQAGGSLRLSCSASGGTASRSAMGWFRQAPGKEREFVAGISRRNSGSTYVADSYEDSVKGRFTISRDNAKNTIYLQMNSLKPEDTAVYYCAAEPTLGWYVPRRSVEYEYWGQGTQVTVSS	0.34

# binder 19E10 VHH-Fc (Fc fusion) QVQLVESGGGLVQPGGSLRLSCVASGSTISINSMGWYRQAPGKAREMVATITNDGPIKYADPVKGRFTISRDNPKNTVYLQMNSLKPEDTAVYYCVADRAYWLAGEWEYWGQGTQVTVSS ; its binning response = 0.11

# binder 15H1 VHH-Fc (Fc fusion) QVQLVESGGGLAQAGGSLRLSCASSGLIFSGSAMGWFRQAPGKEREFVGVISWNGRTTYADSVKGRFTISRDDAVNMVWLQMNNLKPEDTAVYYCAADHLNYGSGDVNPRTYDYWGQGTQVTVSS ; its binning response = 0.11

Values compiled from patent US20250382355A1.
